All values here come from the supplement of paper PMC10219994.

B1: library; a variant is named by its letters at N, in order (parent)
chain: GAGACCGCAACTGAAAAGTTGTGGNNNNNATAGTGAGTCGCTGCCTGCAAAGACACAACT

- Variants of: B1
- test name: ligation selection enrichment (abundance after / before one-round selection) (fold); higher = more template-directed ligation activity
- recorded conditions: with T7Psub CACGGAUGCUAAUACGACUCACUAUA; MgCl2 25 mM; 42 °C; 4 h; pH 8.5
Tick yes if ligation selection enrichment is 0.5 or greater. Tick no if ligation selection enrichment is less than 0.5.

1) GAGACCGCAACTGAAAAGTTGTGGGGTGAATAGTGAGTCGCTGCCTGCAAAGACACAACT [GGTGA] ... yes
2) GAGACCGCAACTGAAAAGTTGTGGCCGAAATAGTGAGTCGCTGCCTGCAAAGACACAACT [CCGAA] ... yes
3) GAGACCGCAACTGAAAAGTTGTGGAACGGATAGTGAGTCGCTGCCTGCAAAGACACAACT [AACGG] ... no
4) GAGACCGCAACTGAAAAGTTGTGGAATGAATAGTGAGTCGCTGCCTGCAAAGACACAACT [AATGA] ... yes
5) GAGACCGCAACTGAAAAGTTGTGGGCCTCATAGTGAGTCGCTGCCTGCAAAGACACAACT [GCCTC] ... no
6) GAGACCGCAACTGAAAAGTTGTGGGCCTTATAGTGAGTCGCTGCCTGCAAAGACACAACT [GCCTT] ... no
7) GAGACCGCAACTGAAAAGTTGTGGGGGGTATAGTGAGTCGCTGCCTGCAAAGACACAACT [GGGGT] ... no
8) GAGACCGCAACTGAAAAGTTGTGGGCACCATAGTGAGTCGCTGCCTGCAAAGACACAACT [GCACC] ... no
9) GAGACCGCAACTGAAAAGTTGTGGCCCTTATAGTGAGTCGCTGCCTGCAAAGACACAACT [CCCTT] ... no
10) GAGACCGCAACTGAAAAGTTGTGGTGTCTATAGTGAGTCGCTGCCTGCAAAGACACAACT [TGTCT] ... no
11) GAGACCGCAACTGAAAAGTTGTGGTACCTATAGTGAGTCGCTGCCTGCAAAGACACAACT [TACCT] ... yes
12) GAGACCGCAACTGAAAAGTTGTGGATCTGATAGTGAGTCGCTGCCTGCAAAGACACAACT [ATCTG] ... yes
13) GAGACCGCAACTGAAAAGTTGTGGGAAAGATAGTGAGTCGCTGCCTGCAAAGACACAACT [GAAAG] ... no
14) GAGACCGCAACTGAAAAGTTGTGGCGGAGATAGTGAGTCGCTGCCTGCAAAGACACAACT [CGGAG] ... no
15) GAGACCGCAACTGAAAAGTTGTGGCCGAGATAGTGAGTCGCTGCCTGCAAAGACACAACT [CCGAG] ... yes
16) GAGACCGCAACTGAAAAGTTGTGGCCTACATAGTGAGTCGCTGCCTGCAAAGACACAACT [CCTAC] ... no
17) GAGACCGCAACTGAAAAGTTGTGGCCCAGATAGTGAGTCGCTGCCTGCAAAGACACAACT [CCCAG] ... no
18) GAGACCGCAACTGAAAAGTTGTGGCAGATATAGTGAGTCGCTGCCTGCAAAGACACAACT [CAGAT] ... yes
19) GAGACCGCAACTGAAAAGTTGTGGTCAAAATAGTGAGTCGCTGCCTGCAAAGACACAACT [TCAAA] ... no
20) GAGACCGCAACTGAAAAGTTGTGGGATGTATAGTGAGTCGCTGCCTGCAAAGACACAACT [GATGT] ... no
21) GAGACCGCAACTGAAAAGTTGTGGATTTGATAGTGAGTCGCTGCCTGCAAAGACACAACT [ATTTG] ... yes
22) GAGACCGCAACTGAAAAGTTGTGGACCCAATAGTGAGTCGCTGCCTGCAAAGACACAACT [ACCCA] ... no
23) GAGACCGCAACTGAAAAGTTGTGGCACGAATAGTGAGTCGCTGCCTGCAAAGACACAACT [CACGA] ... no
24) GAGACCGCAACTGAAAAGTTGTGGCCGTGATAGTGAGTCGCTGCCTGCAAAGACACAACT [CCGTG] ... no
25) GAGACCGCAACTGAAAAGTTGTGGGGGTTATAGTGAGTCGCTGCCTGCAAAGACACAACT [GGGTT] ... no
